Reference source for all entries: patent US20260325685A1

Biological target: human CA-IX (Homo sapiens, UniProt Q16790)
Construct: purchased Acro CA9-H82E3
Assay: Surface Plasmon Resonance (SPR) binding kinetics to recombinant human CA-IX (Biacore 8K, single-cycle kinetics, 1:1 binding model)
Settings: Chelated Metal: Lu-175; SPR, 25° C., pH 7.4; read-out: CAIX KD
Protocol: G1. Surface Plasmon Resonance Assay Conditions for hCA-IX and hCA-XII Surface Plasmon Resonance (SPR) experiments were conducted on a Biacore 8K instrument (Cytiva, Marlborough, MA) to determine the binding kinetics of the compound to recombinant human CA-IX (Acro, CA9-H82E3) and CA-XII (Creative BioMart, CA12-261H) proteins. […]
MEASUREMENT_NAME: Kd

* NCCNC(=O)c1cnc(N[C@@H](CC(=O)N2CCN(C(=O)CN3CCN(CC(=O)O)CCN(CC(=O)O)CCN(CC(=O)O)CC3)C[C@H]2C(=O)NCCn2cc(C34CC(C(=O)Nc5nnc(S(N)(=O)=O)s5)(C3)C4)nn2)C(=O)O)nc1.[Lu+3] | 2.5 to 10 nM
* CC(CC(=O)N1CCC(C(=O)O)(C(=O)NCC(=O)N[C@@H](CCCCn2cc(CCCC(=O)Nc3nnc(S(N)(=O)=O)s3)nn2)C(=O)NCCOCCOCCNC(=O)CN2CCN(CC(=O)O)CCN(CC(=O)O)CCN(CC(=O)O)CC2)CC1)(c1ccc(O)cc1)c1ccc(O)cc1.[Lu+3] | < 1 nM
* CC(CCC(=O)N[C@@H](CC(=O)N[C@@H](CC(=O)NC1(C(=O)NCCOCCOCCNC(=O)CN2CCN(CC(=O)O)CCN(CC(=O)O)CCN(CC(=O)O)CC2)CN(C(=O)Cn2cc(CCC(=O)Nc3nnc(S(N)(=O)=O)s3)nn2)C1)C(=O)O)C(=O)O)(c1ccc(O)cc1)c1ccc(O)cc1.[Lu+3] | 2.5 to 10 nM
* CC(CCNC(=O)N1CCC(C(N)=O)(C(=O)NCC(=O)N2CCN(C(=O)CN3CCN(CC(=O)O)CCN(CC(=O)O)CCN(CC(=O)O)CC3)C[C@H]2C(=O)NCCn2cc(C34CC(C(=O)Nc5nnc(S(N)(=O)=O)s5)(C3)C4)nn2)CC1)(c1ccc(O)cc1)c1ccc(O)cc1.[Lu+3] | 1 to 2.5 nM
* NS(=O)(=O)c1nnc(NC(=O)C23CC(c4cn(CCNC(=O)[C@@H]5CN(C(=O)CN6CCN(CC(=O)O)CCN(CC(=O)O)CCN(CC(=O)O)CC6)CCN5C(=O)C[C@H](NC(=O)C[C@H](NC(=O)c5ccc(C6CC6)nc5)C(=O)O)C(=O)O)nn4)(C2)C3)s1.[Lu+3] | 1 to 2.5 nM
* NS(=O)(=O)c1nnc(NC(=O)C23CC(c4cn(CCNC(=O)[C@@H]5CN(C(=O)CN6CCN(CC(=O)O)CCN(CC(=O)O)CCN(CC(=O)O)CC6)CCN5C(=O)C[C@H](NC(=O)C[C@H](NC(=O)c5ccc(S(F)(F)(F)(F)F)cc5)C(=O)O)C(=O)O)nn4)(C2)C3)s1.[Lu+3] | < 1 nM
* NS(=O)(=O)c1nnc(NC(=O)C23CC(c4cn(CCNC(=O)[C@@H]5CN(C(=O)CN6CCN(CC(=O)O)CCN(CC(=O)O)CCN(CC(=O)O)CC6)CCN5C(=O)C[C@H](NC(=O)C[C@H](NC(=O)c5ccc(C6CC6)cn5)C(=O)O)C(=O)O)nn4)(C2)C3)s1.[Lu+3] | < 1 nM
